tested on: Rattus norvegicus; assay: Inhibition of passive cutaneous anaphylaxis following 3 mg/kg p.o. administration.; type: functional; settings: route oral
Readout Type: inhibition in vivo at 3 mg/kg

[[record]]
smiles_code = "O=C(Nc1nn[nH]n1)c1cccc(Br)n1"
endpoint_result = "38%"

[[record]]
smiles_code = "O=C(Nc1nn[nH]n1)c1ccccn1"
endpoint_result = "29%"

[[record]]
smiles_code = "COc1cccc(C(=O)Nc2nn[nH]n2)n1"
endpoint_result = "36%"

[[record]]
smiles_code = "O=C(Nc1nn[nH]n1)c1cccc(Cl)n1"
endpoint_result = "18%"

[[record]]
smiles_code = "O=C(Nc1nn[nH]n1)c1cc(Cl)ccn1"
endpoint_result = "72%"

[[record]]
smiles_code = "O=C(Nc1nn[nH]n1)c1cc(Br)ccn1"
endpoint_result = "34%"

[[record]]
smiles_code = "CCc1ccnc(C(=O)Nc2nn[nH]n2)c1"
endpoint_result = "29%"

[[record]]
smiles_code = "CC(C)c1ccnc(C(=O)Nc2nn[nH]n2)c1"
endpoint_result = "34%"

[[record]]
smiles_code = "O=C(Nc1nn[nH]n1)c1cccnc1"
endpoint_result = "4%"

[[record]]
smiles_code = "Cc1cccc(C(=O)Nc2nn[nH]n2)n1"
endpoint_result = "46%"

[[record]]
smiles_code = "Cc1ccnc(C(=O)Nc2nn[nH]n2)c1"
endpoint_result = "42%"

[[record]]
smiles_code = "O=C(Nc1nn[nH]n1)c1cccc(/C=C/c2ccccc2)n1"
endpoint_result = "73%"

[[record]]
smiles_code = "CNc1ccc(-c2cc(C)cc(C(=O)Nc3nn[nH]n3)n2)cc1"
endpoint_result = "89%"

[[record]]
smiles_code = "Cc1ccc(C)c(C(=O)Nc2nn[nH]n2)n1"
endpoint_result = "65%"

[[record]]
smiles_code = "CCCCc1ccnc(C(=O)Nc2nn[nH]n2)c1"
endpoint_result = "33%"

[[record]]
smiles_code = "Cc1cc(C)nc(C(=O)Nc2nn[nH]n2)c1"
endpoint_result = "44%"

[[record]]
smiles_code = "CCCCOc1cccc(C(=O)Nc2nn[nH]n2)n1"
endpoint_result = "18%"


###

tested on: Rattus norvegicus; assay: Inhibition of passive cutaneous anaphylaxis following 1 mg/kg p.o. administration.; type: functional; conditions: route oral
Readout Type: inhibition in vivo at 1 mg/kg (%)

[[record]]
smiles_code = "CC(C)c1ccnc(C(=O)Nc2nn[nH]n2)c1"
endpoint_result = 36

[[record]]
smiles_code = "O=C(Nc1nn[nH]n1)c1cccc(/C=C/c2ccccc2)n1"
endpoint_result = 53

[[record]]
smiles_code = "Cc1ccc(C)c(C(=O)Nc2nn[nH]n2)n1"
endpoint_result = 37

[[record]]
smiles_code = "Cc1ccnc(C(=O)Nc2nn[nH]n2)c1"
endpoint_result = 28

[[record]]
smiles_code = "Cc1cccc(C(=O)Nc2nn[nH]n2)n1"
endpoint_result = 40

[[record]]
smiles_code = "O=C(Nc1nn[nH]n1)c1cc(Cl)ccn1"
endpoint_result = 38

[[record]]
smiles_code = "O=C(Nc1nn[nH]n1)c1ccccn1"
endpoint_result = 0

[[record]]
smiles_code = "CCc1ccnc(C(=O)Nc2nn[nH]n2)c1"
endpoint_result = 32

[[record]]
smiles_code = "Cc1cc(Cl)cc(C(=O)Nc2nn[nH]n2)n1"
endpoint_result = 66

[[record]]
smiles_code = "O=C(Nc1nn[nH]n1)c1cc(Br)ccn1"
endpoint_result = 9

